- SYSTEM_NAME: recombinant human ALX receptor (Homo sapiens, UniProt P25090)
- Construct: expressed in transfected cells; host or cells: HEK293 (HEK293-hALXR-Gα16)
- PROTOCOL_NOTES: Intracellular calcium measurements (FLIPR), ALX receptor agonistic activity
- Format: cell-based
- ASSAY_CONTEXT: HEK293-hALXR-Gα16 cells, Fluo-4 calcium signal, normalized to WKYMVm 10 nM
Where a name gives a salt, the structure may show the parent alone.
Mark TRUE only when EC50 stays strictly below 80 nM. Values equal to the cut-off are FALSE.

Known results for molecules:
MOLECULE	SYSTEM_NAME	ASSIGNED_CLASS
COc1ccc(C[C@@H](NC(=O)NC2(c3cccc(Cl)c3)CC2)c2nc3ccccc3[nH]2)cc1	recombinant human ALX receptor (Homo sapiens, UniProt P25090)	FALSE
O=C(NC(Cc1ccc(Br)cc1F)c1nc2ccccc2[nH]1)NC12CCC(O)(CC1)CC2 (stereo not shown)	recombinant human ALX receptor (Homo sapiens, UniProt P25090)	TRUE
O=C(NC(Cc1ccc(Br)c(F)c1)c1nc2ccc(F)cc2[nH]1)NC12CCC(O)(CC1)CC2 (single isomer, unassigned; ent-1)	recombinant human ALX receptor (Homo sapiens, UniProt P25090)	TRUE
CCOc1ccccc1CNC(=O)N[C@H](Cc1ccc(OC)cc1)c1nc2ccccc2[nH]1 [Example 60, hydrochloride]	recombinant human ALX receptor (Homo sapiens, UniProt P25090)	FALSE
COc1ccc(C[C@@H](NC(=O)N[C@H]2CC[C@@H](O)CC2)c2nc3ccccc3[nH]2)cc1	recombinant human ALX receptor (Homo sapiens, UniProt P25090)	TRUE

Prompt: Just wondering, is EC50 of COc1ccc(CC(NC(=O)Nc2ccnn2-c2ccccc2OC)c2nc3ccccc3[nH]2)cc1 (stereo not shown) below 80 nM?
Response: TRUE

* * *

- SYSTEM_NAME: recombinant human ALX receptor (Homo sapiens)
- Sequence (P25090 1-351): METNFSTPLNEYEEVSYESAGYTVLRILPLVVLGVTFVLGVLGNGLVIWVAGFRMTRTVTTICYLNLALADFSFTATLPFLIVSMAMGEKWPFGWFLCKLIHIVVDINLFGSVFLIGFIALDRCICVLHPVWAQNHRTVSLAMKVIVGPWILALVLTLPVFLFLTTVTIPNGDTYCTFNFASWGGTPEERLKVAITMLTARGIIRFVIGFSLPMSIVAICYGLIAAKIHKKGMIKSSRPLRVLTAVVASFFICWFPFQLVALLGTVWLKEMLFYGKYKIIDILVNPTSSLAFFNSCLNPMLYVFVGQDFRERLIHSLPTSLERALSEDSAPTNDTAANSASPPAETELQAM
- PROTOCOL_NOTES: Intracellular calcium measurements (FLIPR), ALX receptor agonistic activity
- ASSAY_CONTEXT: HEK293-hALXR-Gα16 cells, Fluo-4 calcium signal, normalized to WKYMVm 10 nM
ASSAY_ENDPOINT: EC50 (µM)
Respond numerically; units are µM and should not be typed.

COMPOUND	EC50, µM
COc1ccc(CC(NC(=O)N(C)[C@H]2CC[C@H](O)CC2)c2nc3ccccc3[nH]2)cc1 (relative stereo) [Example 76]	0.54
COc1ccc(C[C@@H](NC(=O)N[C@@H](C)c2ccc(C)cc2)c2nc3ccccc3[nH]2)cc1 [Example 333]	0.105
COc1ccc(C[C@@H](NC(=O)NC2(c3ccccc3)CC2)c2nc3ccccc3[nH]2)cc1 [Example 351]	0.35

Then there is this compound:
Prompt: Param readout = EC50; param system = recombinant human ALX receptor (Homo sapiens); param query = COc1ccc(CC(NC(=O)N[C@H]2CC[C@H](OC)CC2)c2nc3ccccc3[nH]2)cc1 (relative stereo) [Example 80] ; response: value
Response: 0.172

* * *

- SYSTEM_NAME: recombinant human ALX receptor (Homo sapiens)
- PROTOCOL_NOTES: Intracellular calcium measurements (FLIPR), ALX receptor agonistic activity
- ASSAY_CONTEXT: HEK293-hALXR-Gα16 cells, Fluo-4 calcium signal, normalized to WKYMVm 10 nM
Exam item: assign True to entries whose EC50 is below 60 nM and False to entries at or above 60 nM. Note that a value of exactly 60 nM receives False.

Check out these entries, answers already filled in.
COMPOUND	SYSTEM_NAME	ASSIGNED_CLASS
COc1cc(F)c(CC(NC(=O)NC23CCC(O)(CC2)CC3)c2nc3ccccc3[nH]2)c(F)c1 (single isomer, unassigned; ent-1) [Example 259]	recombinant human ALX receptor (Homo sapiens)	True
COc1ccc(C[C@@H](NC(=O)NC2CCN(Cc3ccccc3)C2)c2nc3ccccc3[nH]2)cc1 (stereo partly drawn)	recombinant human ALX receptor (Homo sapiens)	False

Prompt: Problem: For the compound COc1ccc(C[C@@H](NC(=O)NCC2CCNCC2)c2nc3ccccc3[nH]2)cc1 , is EC50 under 60 nM?
Response: False

Prompt: Queued: COc1ccc(C[C@@H](NC(=O)NCCN2CCN(C(C)=O)CC2)c2nc3ccccc3[nH]2)cc1
Response: False

* * *

- SYSTEM_NAME: recombinant human ALX receptor (Homo sapiens)
- Sequence (P25090 1-351): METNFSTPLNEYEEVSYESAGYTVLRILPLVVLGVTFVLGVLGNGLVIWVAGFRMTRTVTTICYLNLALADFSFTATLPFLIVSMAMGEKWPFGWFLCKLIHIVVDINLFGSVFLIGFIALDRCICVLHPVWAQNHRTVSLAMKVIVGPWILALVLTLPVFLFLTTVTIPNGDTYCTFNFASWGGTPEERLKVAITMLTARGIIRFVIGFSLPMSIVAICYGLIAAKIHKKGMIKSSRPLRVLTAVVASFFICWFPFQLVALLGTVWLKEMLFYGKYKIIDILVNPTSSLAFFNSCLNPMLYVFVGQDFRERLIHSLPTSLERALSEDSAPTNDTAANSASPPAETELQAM
- PROTOCOL_NOTES: Intracellular calcium measurements (FLIPR), ALX receptor agonistic activity
- ASSAY_CONTEXT: HEK293-hALXR-Gα16 cells, Fluo-4 calcium signal, normalized to WKYMVm 10 nM
ASSAY_ENDPOINT: EC50

# count of solved cases: 3
COMPOUND	EC50
COc1ccc(CC(NC(=O)NCc2cnc3ccccn23)c2nc3ccccc3[nH]2)cc1 (stereo not shown)	990 nM
O=C(NC(Cc1ccc(C(F)F)cc1)c1nc2ccccc2[nH]1)N[C@H]1CC[C@H](O)CC1 (single isomer, unassigned; ent-2)	7.2 nM
COc1ccc(C[C@@H](NC(=O)N[C@H]2CCC[C@H]2O)c2nc3ccccc3[nH]2)cc1	190 nM

Prompt: May I ask what EC50 has been recorded for COc1ccc(CC(NC(=O)NC23CCC(O)(CC2)CC3)c2nc3ccccc3[nH]2)c(F)c1 (stereo not shown) [Example 233] ?
Response: 3.7 nM

* * *

- SYSTEM_NAME: recombinant human ALX receptor (Homo sapiens, UniProt P25090)
- Construct: expressed in transfected cells; host or cells: HEK293 (HEK293-hALXR-Gα16)
- PROTOCOL_NOTES: Intracellular calcium measurements (FLIPR), ALX receptor agonistic activity
- Assay type: cell-based
- ASSAY_CONTEXT: HEK293-hALXR-Gα16 cells, Fluo-4 calcium signal, normalized to WKYMVm 10 nM
Structures can show the parent of a compound that is named as a salt.
Rule for this label: MET means EC50 is less than 50 nM; NOT MET means EC50 is at least 50 nM.

Examples from the recorded data:
COMPOUND	ASSIGNED_CLASS
COc1ccc(C[C@@H](NC(=O)N[C@H]2CC[C@H](O)CC2)c2nc3ccccc3[nH]2)cc1 [Example 4]	MET
COC(=O)N1CCC(NC(=O)N[C@H](Cc2ccc(OC)cc2)c2nc3ccccc3[nH]2)CC1 [Example 139]	NOT MET
COc1ccc(C[C@@H](NC(=O)N[C@@H]2CCc3ccccc32)c2nc3ccccc3[nH]2)cc1 [Example 334]	NOT MET
COc1ccc(CC(NC(=O)N[C@H]2CC[C@H](O)CC2)c2nc3ccccc3[nH]2)c(F)c1F (single isomer, unassigned; ent-1) [Example 365]	MET

Prompt: Problem: For the compound COc1ccc(C[C@@H](NC(=O)NC(CCO)c2ccccc2)c2nc3ccccc3[nH]2)cc1 (some centres unmarked) [Example 343] , is EC50 under 50 nM?
Response: MET

Prompt: Do the same for COc1ccc(C[C@@H](NC(=O)NCc2ccccc2CN2CCOCC2)c2nc3ccccc3[nH]2)cc1 [Example 62, dihydrochloride] please
Response: MET

Prompt: Moving on to the next compound: COc1ccc(C[C@@H](NC(=O)NCCc2ccc(F)c(F)c2)c2nc3ccccc3[nH]2)cc1 [Example 300]
Response: NOT MET

Prompt: Try COc1ccc(CC(NC(=O)NC2CCC(CCO)CC2)c2nc3ccccc3[nH]2)cc1 (centres unmarked) [Example 107] next.
Response: MET

Prompt: What about this compound? COc1ccc(C[C@@H](NC(=O)N[C@@H](CO)Cc2ccccc2)c2nc3ccccc3[nH]2)cc1 [Example 205]
Response: NOT MET

Prompt: Another compound: COc1ccc(C[C@@H](NC(=O)NC2CCNC(=O)C2)c2nc3ccccc3[nH]2)cc1 (some centres unmarked) [Example 174]
Response: NOT MET

Prompt: Subsequent entry: COc1ccc(CC(NC(=O)Nc2ncc(C)s2)c2nc3ccccc3[nH]2)cc1 (centres unmarked) [Example 402]
Response: NOT MET

Prompt: What do we get for COc1ccc(C[C@@H](NC(=O)Nc2cc(C)n(C)n2)c2nc3ccccc3[nH]2)cc1 [Example 7] ?
Response: NOT MET

Prompt: Field entry: COc1ccc(C[C@@H](NC(=O)N[C@H](C(N)=O)c2ccccc2)c2nc3ccccc3[nH]2)cc1 [Example 339]
Response: MET

Prompt: Now give it for CCOC(=O)[C@@H]1CCCC[C@H]1NC(=O)N[C@H](Cc1ccc(OC)cc1)c1nc2ccccc2[nH]1 (relative stereo) [Example 161] too.
Response: MET

Prompt: And then COc1ccc(C[C@@H](NC(=O)NCC2CCCC2)c2nc3ccccc3[nH]2)cc1 [Example 92] , what is it?
Response: MET

Prompt: What do you have for COc1cc(F)c(CC(NC(=O)NC23CCC(O)(CC2)CC3)c2nc3ccc(F)cc3[nH]2)c(F)c1 (single isomer, unassigned; ent-1) [Example 367] ?
Response: MET

Prompt: And then COc1ccc(C[C@@H](NC(=O)NCCc2ccc(F)cc2)c2nc3ccccc3[nH]2)cc1 [Example 55, hydrochloride] , what is it?
Response: NOT MET

Prompt: Likewise for COc1ccc(C[C@@H](NC(=O)NC2(c3ccc(F)cc3)CC2)c2nc3ccccc3[nH]2)cc1 [Example 341] ?
Response: NOT MET

Prompt: Another compound to look at: COc1ccc(C[C@@H](NC(=O)Nc2cc(C3CC3)nn2C)c2nc3ccccc3[nH]2)cc1 [Example 314]
Response: MET

Prompt: Follow-up item: COc1ccc(C[C@@H](NC(=O)NCCC2CCN(C(C)=O)CC2)c2nc3ccccc3[nH]2)cc1 [Example 159]
Response: NOT MET

Prompt: Another: COc1ccc(C[C@@H](NC(=O)NCc2ccn(-c3ccccc3)n2)c2nc3ccccc3[nH]2)cc1 [Example 284]
Response: NOT MET

Prompt: Repeat with COc1ccc(C[C@@H](NC(=O)N(CCO)C2CCCCC2)c2nc3ccccc3[nH]2)cc1 [Example 111]
Response: NOT MET

Prompt: Can you check COc1ccc(C[C@@H](NC(=O)NCCC2CCN(C(=O)OC(C)(C)C)CC2)c2nc3ccccc3[nH]2)cc1 [Example 155] next?
Response: NOT MET

Prompt: How about COc1ccc(C[C@@H](NC(=O)N2CC3CCC2CN3C(=O)OC(C)(C)C)c2nc3ccccc3[nH]2)cc1 (some centres unmarked) [Example 112] ?
Response: NOT MET

Prompt: Request: COc1ccc(CC(NC(=O)NC23CCC(O)(CC2)CC3)c2nc3ccc(F)cc3[nH]2)c(F)c1 (centres unmarked) [Example 245]
Response: MET
